The measurements presented in this section are drawn from the supplement of paper PMC10567573.

B1: TRAF3IP2 (parent)
chain: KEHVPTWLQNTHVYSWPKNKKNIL

variants of: B1; assay: protein stability index of a GFP-peptide fusion (GPS, HEK-293T) (PSI 1-6); higher = more stable; conditions: c terminus: a fixed tail appended;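 note: lentivirally expressed fusions sorted by FACS into six bins by GFP to DsRed ratio, PSI derived from sequencing read proportions per bin multiplied by bin number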
Short version: protein stability index at least 2 is MET, less is NOT MET.

[ask] Does protein stability index meet or surpass 2 for L8M ?
[reply] MET

[ask] Does protein stability index meet or surpass 2 for V4S ?
[reply] MET

[ask] Does protein stability index meet or surpass 2 for E2C ?
[reply] NOT MET

[ask] Does protein stability index meet or surpass 2 for V4E ?
[reply] MET

[ask] Does protein stability index meet or surpass 2 for K20F ?
[reply] NOT MET

[ask] Does protein stability index meet or surpass 2 for T6A ?
[reply] MET

[ask] Does protein stability index meet or surpass 2 for N22T ?
[reply] MET

[ask] Does protein stability index meet or surpass 2 for V4A ?
[reply] MET

[ask] Does protein stability index meet or surpass 2 for N22Y ?
[reply] NOT MET

[ask] Does protein stability index meet or surpass 2 for K1Y ?
[reply] NOT MET

[ask] Does protein stability index meet or surpass 2 for N19Q ?
[reply] MET

[ask] Does protein stability index meet or surpass 2 for T6M ?
[reply] MET

[ask] Does protein stability index meet or surpass 2 for N19K ?
[reply] MET

[ask] Does protein stability index meet or surpass 2 for H12R ?
[reply] MET

[ask] Does protein stability index meet or surpass 2 for H3A ?
[reply] MET

[ask] Does protein stability index meet or surpass 2 for K1G ?
[reply] MET

[ask] Does protein stability index meet or surpass 2 for Q9I ?
[reply] MET

[ask] Does protein stability index meet or surpass 2 for S15Y ?
[reply] MET

[ask] Does protein stability index meet or surpass 2 for W16Q ?
[reply] MET

[ask] Does protein stability index meet or surpass 2 for N10G ?
[reply] MET

[ask] Does protein stability index meet or surpass 2 for W16I ?
[reply] MET

[ask] Does protein stability index meet or surpass 2 for L8D ?
[reply] MET
